Entries annotated with measured EC50
- measurementTarget: hTLR8 (human Toll-like receptor 8) (Homo sapiens, UniProt Q9NR97)
- Sequence (Q9NR97 27-1041): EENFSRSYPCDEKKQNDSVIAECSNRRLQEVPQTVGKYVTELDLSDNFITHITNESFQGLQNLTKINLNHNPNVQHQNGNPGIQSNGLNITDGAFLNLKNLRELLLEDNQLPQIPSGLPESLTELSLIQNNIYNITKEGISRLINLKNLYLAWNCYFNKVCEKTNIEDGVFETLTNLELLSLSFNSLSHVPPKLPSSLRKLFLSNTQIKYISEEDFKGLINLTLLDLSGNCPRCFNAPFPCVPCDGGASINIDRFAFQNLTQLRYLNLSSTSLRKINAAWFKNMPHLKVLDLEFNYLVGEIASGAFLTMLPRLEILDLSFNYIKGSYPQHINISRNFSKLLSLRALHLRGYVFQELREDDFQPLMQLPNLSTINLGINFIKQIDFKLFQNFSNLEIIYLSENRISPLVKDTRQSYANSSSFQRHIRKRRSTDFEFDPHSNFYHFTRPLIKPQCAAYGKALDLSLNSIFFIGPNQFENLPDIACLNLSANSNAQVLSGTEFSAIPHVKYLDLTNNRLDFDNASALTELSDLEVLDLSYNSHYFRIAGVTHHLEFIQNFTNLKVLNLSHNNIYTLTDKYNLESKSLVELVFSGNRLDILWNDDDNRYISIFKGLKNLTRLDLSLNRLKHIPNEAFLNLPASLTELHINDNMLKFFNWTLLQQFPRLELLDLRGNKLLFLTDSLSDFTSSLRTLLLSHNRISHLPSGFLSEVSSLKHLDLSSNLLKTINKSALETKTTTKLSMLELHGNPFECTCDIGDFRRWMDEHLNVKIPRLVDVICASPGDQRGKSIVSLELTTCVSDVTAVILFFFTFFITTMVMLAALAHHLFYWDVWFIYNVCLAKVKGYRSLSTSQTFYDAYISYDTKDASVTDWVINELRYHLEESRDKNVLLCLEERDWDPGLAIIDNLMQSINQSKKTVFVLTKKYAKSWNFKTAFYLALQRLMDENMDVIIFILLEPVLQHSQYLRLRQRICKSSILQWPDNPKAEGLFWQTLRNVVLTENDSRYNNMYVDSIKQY
- testDescription: hTLR8 cell assay (HEK-Blue hTLR8 reporter cells)
- testContext: 24 hours, OD 650 nm

- compound: "CCOCc1nc2c(N)nc3cc(Cc4ccc(CCN)cc4)ccc3c2n1CC(C)(C)OCCN1CCCC1 [Compound 26]"
  EC50: "> 20 µM"
- compound: "CCCC(C)c1nc2c(N)nc3cc(Cc4ccccc4)ccc3c2n1Cc1ccc(CN)cc1 (stereo not shown) [Compound 42]"
  EC50: "< 5 µM"
- compound: "CCOCc1nc2c(N)nc3cc(Cc4ccc(CCCN)cc4)ccc3c2n1CC(C)(C)O [Compound 3]"
  EC50: "5 to 20 µM"
- compound: "CCOCc1nc2c(N)nc3cc(Cc4ccc(CCN)cc4)ccc3c2n1CC1(O)CC1 [Compound 47]"
  EC50: "> 20 µM"
- compound: "CCC[C@H](C)c1nc2c(N)nc3cc(Cc4ccc(CCN)cc4)ccc3c2n1CC(C)(C)O [Compound 10]"
  EC50: "> 20 µM"
- compound: "CCCC(F)(F)c1nc2c(N)nc3cc(Cc4cccc(CN)c4)ccc3c2n1CC(C)(C)O [Compound 52]"
  EC50: "< 5 µM"
- compound: "CCOCc1nc2c(N)nc3cc(Cc4ccccc4)ccc3c2n1CCC(O)C(F)(F)F (stereo not shown) [Compound 46]"
  EC50: "> 20 µM"

* * *

- measurementTarget: hTLR7 (human Toll-like receptor 7) (Homo sapiens)
- Construct: host or cells: HEK-Blue hTLR7 (HEK293-derived reporter cells)
- Sequence (Q9NYK1 27-1049): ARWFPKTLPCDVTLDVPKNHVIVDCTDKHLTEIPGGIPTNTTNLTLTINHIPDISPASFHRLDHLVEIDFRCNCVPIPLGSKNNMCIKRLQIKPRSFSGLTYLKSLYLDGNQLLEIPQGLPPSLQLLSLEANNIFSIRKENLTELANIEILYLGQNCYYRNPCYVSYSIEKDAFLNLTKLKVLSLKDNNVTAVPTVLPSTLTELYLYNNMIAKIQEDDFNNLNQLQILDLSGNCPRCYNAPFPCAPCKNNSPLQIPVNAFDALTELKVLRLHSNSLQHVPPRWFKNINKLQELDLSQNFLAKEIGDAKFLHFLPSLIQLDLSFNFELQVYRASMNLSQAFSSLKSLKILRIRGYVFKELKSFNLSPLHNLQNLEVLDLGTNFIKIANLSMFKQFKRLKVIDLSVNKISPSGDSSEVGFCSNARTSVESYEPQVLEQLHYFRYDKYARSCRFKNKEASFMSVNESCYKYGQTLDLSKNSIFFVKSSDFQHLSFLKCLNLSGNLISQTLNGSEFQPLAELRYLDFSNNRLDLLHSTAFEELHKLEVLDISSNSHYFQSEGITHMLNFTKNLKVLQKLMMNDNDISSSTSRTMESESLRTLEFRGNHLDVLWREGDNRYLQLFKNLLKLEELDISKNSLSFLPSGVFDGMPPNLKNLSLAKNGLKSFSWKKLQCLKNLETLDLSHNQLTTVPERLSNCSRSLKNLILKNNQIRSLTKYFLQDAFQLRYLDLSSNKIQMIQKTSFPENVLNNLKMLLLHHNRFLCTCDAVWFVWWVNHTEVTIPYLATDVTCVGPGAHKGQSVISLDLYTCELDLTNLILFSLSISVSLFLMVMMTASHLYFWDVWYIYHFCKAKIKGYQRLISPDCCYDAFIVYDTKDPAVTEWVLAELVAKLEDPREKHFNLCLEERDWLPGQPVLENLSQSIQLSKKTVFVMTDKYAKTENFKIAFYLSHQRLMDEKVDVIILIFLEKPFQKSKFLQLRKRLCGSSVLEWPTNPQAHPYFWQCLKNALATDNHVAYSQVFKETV
- testDescription: hTLR7 cell assay (HEK-Blue hTLR7 reporter cells)
- Type: cell-based
- testContext: 24 hours, OD 650 nm
pEC50: −log10 of the molar value.

- compound: "CCOCc1nc2c(N)nc3cc(Cc4ccc(CCN)cc4)ccc3c2n1CC(C)(C)OCCNC(=O)C(C)C"
  pEC50: "5.00 to 6.00"
- compound: "CCCCc1nc2c(N)nc3cc(Cc4ccc5c(c4)CCNC5)ccc3c2n1CC(C)(C)O"
  pEC50: "> 6.00"
- compound: "CCOCc1nc2c(N)nc3cc(Cc4ccccc4)ccc3c2n1CC(C)(C)NCCN"
  pEC50: "< 5.00"
- compound: "CCOCc1nc2c(N)nc3cc(Cc4ccc5c(c4)CCNC5)ccc3c2n1CC(C)(C)O"
  pEC50: "> 6.00"
- compound: "CCCC(C)c1nc2c(N)nc3cc(Cc4ccc(CCN)cc4)ccc3c2n1Cc1ccccc1 (centres unmarked)"
  pEC50: "5.00 to 6.00"
- compound: "CCOCc1nc2c(N)nc3cc(Cc4ccc(CCN)cc4)ccc3c2n1CCNS(C)(=O)=O"
  pEC50: "< 5.00"
- compound: "CCCCc1nc2c(N)nc3cc(Cc4ccccc4CN)ccc3c2n1CC(C)(C)O"
  pEC50: "5.00 to 6.00"
- compound: "CCCC(C)c1nc2c(N)nc3cc(Cc4ccccc4)ccc3c2n1Cc1ccc(CN)cc1 (centres unmarked)"
  pEC50: "5.00 to 6.00"
- compound: "CCOCc1nc2c(N)nc3cc(Cc4cccc(CN)c4)ccc3c2n1CC(C)(C)O"
  pEC50: "> 6.00"
- compound: "CCOCc1nc2c(N)nc3cc(Cc4ccc(CCN)cc4)ccc3c2n1C[C@@H]1[C@@H](CO)C1(F)F"
  pEC50: "< 5.00"
- compound: "CCOCc1nc2c(N)nc3cc(Cc4ccc(CN)s4)ccc3c2n1CC(C)(C)O"
  pEC50: "> 6.00"
- compound: "CCCCc1nc2c(N)nc3cc(Cc4cccc(CCN)c4)ccc3c2n1CC(C)(C)O"
  pEC50: "> 6.00"
- compound: "CCCCc1nc2c(N)nc3cc(Cc4ccc(C(C)(C)CN)cc4)ccc3c2n1CC(C)(C)O"
  pEC50: "> 6.00"
- compound: "CCCCc1nc2c(N)nc3cc(Cc4cccc(N5CCNCC5)c4)ccc3c2n1CC(C)(C)O"
  pEC50: "> 6.00"
